Sourced from ChEMBL document CHEMBL1201862

Tested on: HOP-18
Run Description: NCI tumour cell line growth inhibition, 48 h
Activity calls are given as the source filed them. Cut-off read from the data, not from the text of the source: active = GI50 up to about 1.1 µM and inactive = higher.

>  <Compound>
COc1ccc(OC(C(=O)O)C(C)C)c2c1CCCC2=O (stereo not given)

>  <Assay System>
HOP-18

>  <GI50>
> 100 µM (inactive)

$$$$
>  <Compound>
COc1ccc(N2C(=O)[C@@H]3[C@@H]4CC(C)CC[C@@H]4c4c([nH]c5ccccc45)[C@@H]3C2=O)cc1 (stereo not given in full)

>  <Assay System>
HOP-18

>  <GI50>
4.4 µM (inactive)

$$$$
>  <Compound>
Cc1noc(/N=C2\C=C(Nc3onc(C)c3C)C(=O)c3ccccc32)c1C

>  <Assay System>
HOP-18

>  <GI50>
85.9 µM (inactive)

$$$$
>  <Compound>
CS/C(c1ccccc1)=[N+](/C)[O-]

>  <Assay System>
HOP-18

>  <GI50>
> 100 µM (inactive)

$$$$
>  <Compound>
CCOC(=O)NC1CC2CCC1(OC)C=C2C (stereo not given)

>  <Assay System>
HOP-18

>  <GI50>
> 100 µM (inactive)

$$$$
>  <Compound>
CC(C)=CCCC(C)[C@H]1CC(O)C2(C)C3=CCC4C(C)(C)[C@@H](O)CC[C@]4(C)C3=CC[C@]12C (stereo not given in full)

>  <Assay System>
HOP-18

>  <GI50>
13.7 µM (inactive)

$$$$
>  <Compound>
Cc1ccccc1NC(=O)c1cc(-c2ccc([N+](=O)[O-])cc2)nc(S)n1

>  <Assay System>
HOP-18

>  <GI50>
> 100 µM (inactive)

$$$$
>  <Compound>
CCOC(=O)C(c1ccsc1)P(=O)(OCC)OCC (stereo not given)

>  <Assay System>
HOP-18

>  <GI50>
28.3 µM (inactive)

$$$$
>  <Compound>
CC1(C)CC(=O)C(/C(=N/NC(=S)NN)C(=O)Nc2nc3ccc([N+](=O)[O-])cc3s2)C(=O)C1

>  <Assay System>
HOP-18

>  <GI50>
76.7 µM (inactive)

$$$$
>  <Compound>
Cc1ccccc1C1OC(=O)c2ccc3ccccc3c21 (stereo not given)

>  <Assay System>
HOP-18

>  <GI50>
7.64 µM (inactive)

$$$$

* * *

Test system: UO-31
Run Description: NCI tumour cell line growth inhibition, 48 h
Activity calls are given as the source filed them. No stated cut-off is given here; in the data, active = GI50 up to about 1.1 µM and inactive = higher.
Labels: active, inactive

>  <Compound>
COC(=O)CC1CN(C(=O)OCc2ccccc2)C(C)(C)O1 (stereo unspecified)

>  <Class Label>
inactive

$$$$
>  <Compound>
CN(Cc1ccccc1)C(=NC#N)N(C)Cc1ccccc1

>  <Class Label>
inactive

$$$$
>  <Compound>
Cc1ccsc1/C=N/Nc1nncc2ccccc12

>  <Class Label>
inactive

$$$$
>  <Compound>
CC(Oc1ccc(OCC2CCCCC2)cc1)C(N)=O (stereo unspecified)

>  <Class Label>
inactive

$$$$
>  <Compound>
N#Cc1nc(C2=C(Cl)c3ccccc3OC2)[nH]c1C#N

>  <Class Label>
inactive

$$$$
>  <Compound>
Brc1cc2c(cc1Br)CN(c1ccccc1)C2

>  <Class Label>
inactive

$$$$
>  <Compound>
NC(=O)/C=C/NC(=O)/C=N\O

>  <Class Label>
inactive

$$$$
>  <Compound>
O=C(O)c1ccc(NNC(=O)c2cccc3c(=O)c4ccccc4[nH]c23)cc1

>  <Class Label>
inactive

$$$$
>  <Compound>
CN(C)CCn1c(=O)c2ccc3c4c(nn3CCN(C)C)c3cc(N)ccc3n(c1=O)c24

>  <Class Label>
active

$$$$
>  <Compound>
Cc1c[nH]c2c(O)cc3c(c12)[C@H](CCl)CN3C(=O)c1cc2cc(NC(=O)Nc3ccc4[nH]c(C(=O)N5C[C@@H](CCl)c6c5cc(O)c5[nH]cc(C)c65)cc4c3)ccc2[nH]1

>  <Class Label>
active

$$$$
>  <Compound>
N/C(=N\c1cccc(Cl)c1)c1ccccc1N

>  <Class Label>
inactive

$$$$
>  <Compound>
CCOC(=O)C1=C(N)N(c2ccccc2)/C(=C(/C#N)c2nc3ccccc3[nH]2)S1

>  <Class Label>
inactive

$$$$
>  <Compound>
C[Si](C)(C)/C(Br)=C\CCN1C(=O)CCC1O (stereo unspecified)

>  <Class Label>
inactive

$$$$
>  <Compound>
C/C(Cl)=N\OC(=O)Nc1ccc([N+](=O)[O-])cc1

>  <Class Label>
inactive

$$$$
>  <Compound>
Oc1ccc(-c2nc3ccc(Br)cc3s2)cc1

>  <Class Label>
inactive

$$$$
>  <Compound>
CCCCCCCCC/C=C1/CC(CO)(COC(=O)CC(C(C)C)C(C)C)OC1=O (stereo unspecified)

>  <Class Label>
inactive

$$$$
>  <Compound>
CC1=C(c2ccccc2)NC(=S)C(C)C(c2ccccc2)=N1 (stereo unspecified)

>  <Class Label>
inactive

$$$$
>  <Compound>
c1ccc(C2OC3(CCC[C@H]4C[C@H]43)O[C@H]2c2ccccc2)cc1 (stereo partly specified)

>  <Class Label>
inactive

$$$$
>  <Compound>
C/C(CC(=O)Nc1ccc(NC(=O)/C(C)=N/NS(=O)(=O)c2ccc(C)cc2)cc1)=N\NS(=O)(=O)c1ccc(C)cc1

>  <Class Label>
inactive

$$$$
>  <Compound>
CC1C(=O)O[B-]2(c3ccccc3)Oc3ccccc3C=[N+]12 (stereo unspecified)

>  <Class Label>
inactive

$$$$
>  <Compound>
O=C(C/C(=N\NC(=O)C[n+]1ccccc1)C(=O)Nc1nc2ccc([N+](=O)[O-])cc2s1)CC(c1ccccc1)c1c(O)c2ccccc2oc1=O (stereo unspecified)

>  <Class Label>
inactive

$$$$

* * *

Entries annotated with measured GI50
Test system: MCF7
Run Description: NCI tumour cell line growth inhibition, 48 h
Calls of active or inactive are those of the source. No stated cut-off is given here; in the data, active = GI50 up to about 1.1 µM and inactive = higher. Where a SMILES comes first, the peptide text is derived from it. The star is where a group is joined. Boc = CC(C)(C)OC(=O)*; Bn = c1ccc(C*)cc1

>  <Compound>
O=C1Nc2ccc(Br)cc2/C1=N/NC(=S)Nc1ccc(F)cc1

>  <GI50>
3.43 µM (inactive)

$$$$
>  <Compound>
CN(C)/C=C/c1nnc([N+](=O)[O-])s1

>  <GI50>
2.17 µM (inactive)

$$$$
>  <Compound>
O=C(OCC1CCCN2CCCCC12)c1cccnc1 (stereo not given)

>  <GI50>
> 100 µM (inactive)

$$$$
>  <Compound>
COC(=O)C(CC(C)C)NC(=O)C(C)NC(=O)C(Cc1ccc(OCc2ccccc2)cc1)NC(=O)C(COCc1ccccc1)NC(=O)OC(C)(C)C (stereo not given) (Boc-S(Bn)Y(Bn)AL-OMe; configuration not given here)

>  <GI50>
> 100 µM (inactive)

$$$$
>  <Compound>
CCCNC(=O)c1cc(OC)c(OC)cc1NC(=O)C12CC3CC(CC(C3)C1)C2

>  <GI50>
22.2 µM (inactive)

$$$$
>  <Compound>
CN(C)c1cccc2c1C(=O)C=CC21c2ccc(N(C)C)c3c(N(C)C)ccc(c23)C(c2ccccc2)C1c1ccccc1 (stereo not given)

>  <GI50>
17.9 µM (inactive)

$$$$
>  <Compound>
Cc1ccc(C(=O)Nc2ccc(S(=O)(=O)O)c3cc(S(=O)(=O)O)cc(S(=O)(=O)O)c23)cc1NC(=O)Nc1cc(C(=O)Nc2ccc(S(=O)(=O)O)c3cc(S(=O)(=O)O)cc(S(=O)(=O)O)c23)ccc1C

>  <GI50>
> 87.5 µM (inactive)

$$$$
>  <Compound>
C/C(=C/CO[Si](C)(C)C(C)(C)C)C(=O)N(C)c1ccccc1I

>  <GI50>
16.9 µM (inactive)

$$$$
>  <Compound>
Nc1ncnc2c1ccn2COC(CO)CO

>  <GI50>
92 µM (inactive)

$$$$
>  <Compound>
Cn1c(=O)c2c(ncn2CN2CCN(Cn3cnc4c3c(=O)n(C)c(=O)n4C)CC2)n(C)c1=O

>  <GI50>
16.9 µM (inactive)

$$$$
>  <Compound>
C#C/C=C\CCCC/C=C\C#CC#CCCCC#CC#C[C@H](COS(=O)(=O)O)OS(=O)(=O)O

>  <GI50>
> 100 µM (inactive)

$$$$
>  <Compound>
Cc1ccc2c(c1)[n+]([O-])c(N)n[n+]2[O-]

>  <GI50>
> 100 µM (inactive)

$$$$
>  <Compound>
CNC(=O)OC(COC)CN1CCN(c2ccccc2C)CC1 (stereo not given)

>  <GI50>
> 10 µM (inactive)

$$$$
>  <Compound>
COc1ccc(CC2COc3cc(OC)cc(OC)c3C2=O)cc1 (stereo not given)

>  <GI50>
36 µM (inactive)

$$$$
>  <Compound>
N[C@@H]1c2c(Br)sc(Br)c2[C@H](O)[C@@H]1O

>  <GI50>
> 100 µM (inactive)

$$$$
>  <Compound>
CC1C(=O)O[B-]2(c3ccccc3)Oc3ccccc3C=[N+]12 (stereo not given)

>  <GI50>
61.2 µM (inactive)

$$$$
>  <Compound>
CCN(CC)CCC(=O)c1ccc(Oc2ccc(Cl)cc2)cc1

>  <GI50>
17.7 µM (inactive)

$$$$
>  <Compound>
COCn1c(C)c(C)c2c(=O)oc(C)nc21

>  <GI50>
> 100 µM (inactive)

$$$$
>  <Compound>
COc1c(O)cc2c(c1O)C(=O)/C(=C/c1ccc(O)cc1)CO2

>  <GI50>
34.7 µM (inactive)

$$$$
>  <Compound>
CC(=O)OCC1OC(On2ccccc2=S)C(OC(C)=O)C(OC(C)=O)C1OC(C)=O (stereo not given)

>  <GI50>
> 100 µM (inactive)

$$$$
